From: patent US9708334B2

# ASSAYED_SYSTEM: GlyT1 (Homo sapiens, UniProt P48067)
# Construct: expressed in transfected cells
# Sequence (P48067 1-706): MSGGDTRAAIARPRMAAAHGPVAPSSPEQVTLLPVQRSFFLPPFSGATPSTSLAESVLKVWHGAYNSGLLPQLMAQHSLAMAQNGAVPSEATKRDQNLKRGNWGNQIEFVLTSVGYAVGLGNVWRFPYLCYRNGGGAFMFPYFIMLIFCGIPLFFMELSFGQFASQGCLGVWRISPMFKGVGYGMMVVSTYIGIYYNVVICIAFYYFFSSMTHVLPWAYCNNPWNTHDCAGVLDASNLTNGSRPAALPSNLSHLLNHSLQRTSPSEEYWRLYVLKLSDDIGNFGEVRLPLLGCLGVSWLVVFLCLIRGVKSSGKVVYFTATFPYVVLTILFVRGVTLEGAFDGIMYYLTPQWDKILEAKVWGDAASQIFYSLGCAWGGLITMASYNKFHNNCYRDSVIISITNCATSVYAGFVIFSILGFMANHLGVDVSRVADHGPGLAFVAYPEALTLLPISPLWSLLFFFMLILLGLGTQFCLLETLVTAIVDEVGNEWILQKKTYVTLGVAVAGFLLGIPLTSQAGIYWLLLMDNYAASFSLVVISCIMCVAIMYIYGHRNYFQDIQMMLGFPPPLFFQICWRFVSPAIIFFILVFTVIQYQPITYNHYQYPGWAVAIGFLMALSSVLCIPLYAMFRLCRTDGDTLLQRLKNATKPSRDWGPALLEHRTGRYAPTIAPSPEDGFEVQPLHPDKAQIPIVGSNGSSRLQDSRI
# METHOD_NOTES: Glycine Transporter 1 (GlyT1) uptake assay, scintillation proximity assay of [14C]-glycine uptake
# Format: cell-based
# RUN_CONDITIONS: SPA, four parameter logistic fit, read-out: GlyT1 (pIC50) (converted)
Reported IC50 values follow for various molecules

Solved cases below.
MOLECULE	VAL
N#Cc1ccc(OCC(F)(F)F)c(C(=O)N2Cc3cn(-c4ccc(F)cc4)nc3C2)c1Cl [Example 28]	100 to 1000 nM
CC(C)Oc1ccc(S(C)(=O)=O)cc1C(=O)N1Cc2cn(-c3cccc(C(F)(F)F)c3)nc2C1 [Example 47]	< 100 nM
N#Cc1ccc(C2CCC2)c(C(=O)N2CCc3nn(-c4ccccc4)cc3C2)c1 [Example 174]	1000 to 10000 nM
CC(C)Oc1ccc(S(C)(=O)=O)cc1C(=O)N1Cc2cn(-c3cccc(C(F)(F)F)c3F)nc2C1 [Example 46]	< 100 nM
CC(C)Oc1ccc(S(C)(=O)=O)cc1C(=O)N1Cc2cn(C3CCC(F)(F)CC3)nc2C1 [Example 470]	< 100 nM

Give the measured IC50 for Cc1cccc(-n2cc3c(n2)CN(C(=O)c2cc(S(C)(=O)=O)ccc2OC(C)C)C3)c1 [Example 85]
< 100 nM

Give the measured IC50 for CS(=O)(=O)c1ccc(OCC(F)(F)F)c(C(=O)N2Cc3cn(-c4ccc(F)cc4)nc3C2)c1 [Example 103]
< 100 nM

Give the measured IC50 for COc1c(C#N)ccc(OCC2(C)CC2)c1C(=O)N1CCc2nn(-c3ccc(F)cc3)cc2C1 [Example 475]
> 10000 nM
